Values from PubChem BioAssay

System: wheat germ agglutinin (Triticum aestivum), Alexa647-labelled
Experiment: Alexa647-WGA lectin binding to printed small molecules – biochemical, small-molecule microarray, 635/667 nm fluorescence, artefact control for SMM control-protein annotation, profiling panel (AID 1140);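 also: score merges 667 nm feature emission with signal to noise over triplicate slides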
Conditions: WGA-A647 binding, 635 nm fluorescence, higher = more signal

compound: CC(C)[Si]1(C(C)C)OCc2cc(C3CC3)nc(-c3ccc(Oc4ccccc4)cc3)c21
composite z-score: -0.596
--
compound: CC(C)[Si]1(C(C)C)OCc2cc(-c3ccc(-c4ccc(Cl)c(Cl)c4)o3)nc(-c3ccccc3)c21
composite z-score: -0.0496
--
compound: CO[C@H]1O[C@H](CO)[C@@H](OC(=O)Nc2ccc3c(c2)OCO3)[C@H](OC(=O)Nc2ccc3c(c2)OCO3)[C@@H]1OC(=O)Nc1ccc2c(c1)OCO2
composite z-score: 0.682
--
compound: CC1CC/C=C\[C@H]2OC34C=CCN(Cc5ccccc5)C(=O)[C@H]3N(C(CO)C(C)C)C(=O)[C@@H]4C2C(=O)O1 (some centres not stated)
composite z-score: 0.389
--
compound: COc1ccc([Si](C)(C)[C@@H]2[C@@H](CCO)O[C@]3(C(=O)N(Cc4ccccc4)c4ccc(N5CCOC5=O)cc43)[C@H]2C)cc1
composite z-score: 0.896
--
compound: CCOC(=O)C[C@H]1[C@H](OC(=O)c2ccccc2-c2ccccc2)[C@@H](NC(=O)c2ccc3ccccc3c2)c2cc(OCCCO)ccc2N1C(=O)c1ccccc1
composite z-score: -0.0223
--
compound: CN(C)c1ccc(C(O)C2C=CC3C(=O)NC(=O)C3N2Nc2ccccn2)cc1 (configuration not stated)
composite z-score: 0.423
